Data provenance is patent US8178552B2.

Some molecules, each annotated with its measured inhibition in vivo at 20 mg/kg.
Tested on: c-Jun phosphorylation
Assay: LPS-induced c-Jun phosphorylation in spleen of mice (HTRF)
Type: in vivo, male C57/B16 mice
Conditions: Mus musculus, po; 20 mg/kg p.o. 30 min before LPS 10 mg/kg i.p.; 1 hour after LPS; versus vehicle-treated animals; read-out: Percentage reduction in the level of P-c-Jun in spleen
quantity-measured: inhibition in vivo at 20 mg/kg (%)

1) CN1CCCN([C@H]2CC[C@H](c3cnc4[nH]cc(-c5cnn(C)c5)c4c3)CC2)CC1 :: -3
2) Cn1cc(-c2c[nH]c3ncc([C@H]4CC[C@H](N(C)C)CC4)cc23)cn1 :: 7
3) CN1CCN([C@H]2CC[C@H](c3cnc4[nH]cc(-c5cnn(C)c5)c4c3)CC2)CC1 :: 25
4) Cn1cc(-c2c[nH]c3ncc([C@H]4CC[C@@H](N5CCCOCC5)CC4)cc23)cn1 :: 10
5) Cn1cc(-c2c[nH]c3ncc(C4C5CC6CC(C5)CC4C6)cc23)cn1 (centres unmarked) :: 33
6) Cn1cc(-c2c[nH]c3ncc([C@H]4CC[C@@H](N5CCCC5)CC4)cc23)cn1 :: 2
7) Cn1cc(-c2c[nH]c3ncc(C4=CCCC5C4C5(C)C)cc23)cn1 (centres unmarked) :: 4
8) Cn1cc(-c2c[nH]c3ncc(C4=CCCC4)cc23)cn1 :: 75

###

Molecular target: JNK3 (Homo sapiens, UniProt P53779)
Sequence (P53779 whole entry, species assumed): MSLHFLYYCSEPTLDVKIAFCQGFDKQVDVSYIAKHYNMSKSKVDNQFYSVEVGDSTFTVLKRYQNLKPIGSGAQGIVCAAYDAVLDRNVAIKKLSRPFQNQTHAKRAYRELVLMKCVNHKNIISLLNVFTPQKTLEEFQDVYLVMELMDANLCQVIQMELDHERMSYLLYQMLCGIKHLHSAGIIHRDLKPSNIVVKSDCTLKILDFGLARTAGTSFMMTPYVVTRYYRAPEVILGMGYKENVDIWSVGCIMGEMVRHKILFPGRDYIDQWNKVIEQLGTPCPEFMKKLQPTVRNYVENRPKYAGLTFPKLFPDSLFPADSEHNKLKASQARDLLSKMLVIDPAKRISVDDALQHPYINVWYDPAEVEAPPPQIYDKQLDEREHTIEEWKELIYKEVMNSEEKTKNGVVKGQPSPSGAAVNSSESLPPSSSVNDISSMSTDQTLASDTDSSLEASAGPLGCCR
pIC50: −log10 of the molar value.
Label rule not met if pIC50 falls below 7; label rule met in every other case.

1) CCCN(C)[C@H]1CC[C@H](c2cnc3[nH]cc(-c4cnn(C)c4)c3c2)CC1 :: rule not met
2) CCOCCN(CC)[C@H]1CC[C@H](c2cnc3[nH]cc(-c4cnn(C)c4)c3c2)CC1 :: rule not met
3) CC1CCC(c2cnc3[nH]cc(-c4cnn(C)c4)c3c2)CC1 (mixture of isomers) :: rule met
4) Cn1cc(-c2c[nH]c3ncc([C@H]4CC[C@@H](N5CCC(F)(F)C5)CC4)cc23)cn1 :: rule not met
5) Cn1cc(-c2c[nH]c3ncc(C4=CCC(C)(C)CC4)cc23)cn1 :: rule not met
6) CCCN(C)[C@H]1CC[C@@H](c2cnc3[nH]cc(-c4cnn(C)c4)c3c2)CC1 :: rule not met
7) Cn1cc(-c2c[nH]c3ncc([C@H]4CC[C@@H](N5CC[C@@H](F)C5)CC4)cc23)cn1 :: rule not met
8) CN1CCN(C2CC3C=C(c4cnc5[nH]cc(-c6cnn(C)c6)c5c4)CC(C3)C2)CC1 (centres unmarked) :: rule not met
9) CCC1CC=C(c2cnc3[nH]cc(-c4cnn(C)c4)c3c2)CC1 (centres unmarked) :: rule met
10) Cn1cc(-c2c[nH]c3ncc(C4=C[C@H]5O[C@@H]4CC5C(N)=O)cc23)cn1 (mixture of isomers) :: rule not met
11) Cn1cc(-c2c[nH]c3ncc([C@H]4CC[C@H](N(C)C)CC4)cc23)cn1 :: rule not met
12) Cn1cc(-c2c[nH]c3ncc(C4=CC5CC(O)CC(C4)C5)cc23)cn1 (centres unmarked) :: rule not met
13) Cn1cc(-c2c[nH]c3ncc(C4=CCCC5C4C5(C)C)cc23)cn1 (centres unmarked) :: rule not met
14) CCN(CCOC)[C@H]1CC[C@H](c2cnc3[nH]cc(-c4cnn(C)c4)c3c2)CC1 :: rule not met
15) CCOCCN[C@H]1CC[C@H](c2cnc3[nH]cc(-c4cnn(C)c4)c3c2)CC1 :: rule not met
16) CN1CCN([C@H]2CC[C@H](c3cnc4[nH]cc(-c5cnn(C(F)(F)F)c5)c4c3)CC2)CC1 :: rule not met
17) CN(C)[C@H]1CC[C@@H](c2cnc3[nH]cc(-c4cnn(CCN5CCOCC5)c4)c3c2)CC1 :: rule not met
18) CC1CC=C(c2cnc3[nH]cc(-c4cnn(C)c4)c3c2)CC1 (centres unmarked) :: rule met
19) Cn1cc(-c2c[nH]c3ncc([C@H]4CC[C@H](C(=O)O)CC4)cc23)cn1 :: rule not met
20) Cn1cc(-c2c[nH]c3ncc(C4=CCC(C)(C)C=C4)cc23)cn1 :: rule met
21) c1nn(CCN2CCOCC2)cc1-c1c[nH]c2ncc([C@H]3CC[C@@H](N4CCOCC4)CC3)cc12 :: rule not met
22) CCNC1CCC(c2cnc3[nH]cc(-c4cnn(C)c4)c3c2)CC1 (centres unmarked) :: rule not met

###

// values below are reported inhibition in vivo at 20 mg/kg
Test system: c-Jun phosphorylation
Assay: LPS-induced c-Jun phosphorylation in spleen of mice (HTRF)
Type: in vivo, male C57/B16 mice
Settings: Mus musculus, po; 20 mg/kg p.o. 30 min before LPS 10 mg/kg i.p.; 1 hour after LPS; versus vehicle-treated animals; read-out: Percentage reduction in the level of P-c-Jun in spleen
quantity-measured: inhibition in vivo at 20 mg/kg (%)

1) CC(C)N1CCN([C@H]2CC[C@H](c3cnc4[nH]cc(-c5cnn(C)c5)c4c3)CC2)CC1 :: 0
2) Cn1cc(-c2c[nH]c3ncc([C@H]4CC[C@@H](N(C)C)CC4)cc23)cn1 :: 15
3) CC1CCC(c2cnc3[nH]cc(-c4cnn(C)c4)c3c2)CC1 (mixture of isomers) :: 0
4) Cn1cc(-c2c[nH]c3ncc(C4CCCCC4)cc23)cn1 :: 20

###

Test system: c-Jun phosphorylation
Assay: LPS-induced c-Jun phosphorylation in spleen of mice (HTRF)
Format: in vivo, male C57/B16 mice
Settings: Mus musculus, po; 20 mg/kg p.o. 30 min before LPS 10 mg/kg i.p.; 1 hour after LPS; versus vehicle-treated animals; read-out: Percentage reduction in the level of P-c-Jun in spleen
Procedure: The studies were carried out in male C57/B16 mice. Compounds (20 mg/kg; p.o.) were administered 30 minutes before injection of lipopolysaccharide (LPS). LPS was administered intraperitoneally at a dose of 10 mg/kg. Animals were sacrificed 1 hour following LPS injection. […] Plasma TNFα was measured using an ELISA kit purchased from R&D systems. Spleens were homogenised, extracted in high salt (250 mM NaCl) lysis buffer with phosphatase inhibitors and c-Jun phosphorylation was measured using HTRF. […]
Output t for inhibition in vivo at 20 mg/kg not less than 20%; output f otherwise.

1) Cn1cc(-c2c[nH]c3ncc([C@H]4CC[C@@H](N5CCOCC5)CC4)cc23)cn1 [Compound I-7] :: f
2) Cn1cc(-c2c[nH]c3ncc([C@H]4CC[C@H](N5CCCOCC5)CC4)cc23)cn1 [Compound I-40] :: t
3) Cn1cc(-c2c[nH]c3ncc(C4CCC5(CC4)OCCO5)cc23)cn1 [Compound I-19] :: t
4) CC(C)N1CCN([C@H]2CC[C@@H](c3cnc4[nH]cc(-c5cnn(C)c5)c4c3)CC2)CC1 [Compound I-44] :: f
5) CN1CCN([C@H]2CC[C@@H](c3cnc4[nH]cc(-c5cnn(C)c5)c4c3)CC2)CC1 [Compound I-26] :: f
6) Cn1cc(-c2c[nH]c3ncc(C4=CC5CCC4C5)cc23)cn1 (stereo not drawn) [Compound I-136] :: t
7) Cn1cc(-c2c[nH]c3ncc([C@H]4CC[C@H](N5CCOCC5)CC4)cc23)cn1 [Compound I-6] :: t
8) Cn1cc(-c2c[nH]c3ncc([C@H]4CC[C@H](N5CCCC5)CC4)cc23)cn1 [Compound I-24] :: t
9) Cn1cc(-c2c[nH]c3ncc(C4CC5CCC4C5)cc23)cn1 (stereo not drawn) [Compound I-137] :: f

###

Target: JNK3 (Homo sapiens)
pIC50: −log10 of the molar value.
Let's look at some molecules and their measured pIC50.
quantity-measured: pIC50

1) Cn1cc(-c2c[nH]c3ncc(C4CCC(F)(F)CC4)cc23)cn1 :: 6.86
2) CN1C2CC3CC(C2)C(O)C1(c1cnc2[nH]cc(-c4cnn(C)c4)c2c1)C3 (centres unmarked) :: 6.54
3) Cn1cc(-c2c[nH]c3ncc([C@H]4CC[C@@H](N5CCCC5)CC4)cc23)cn1 :: 6.90
4) Cn1cc(-c2c[nH]c3ncc([C@H]4CC[C@H](CO)CC4)cc23)cn1 :: 7.20
5) CC1CCCCC1c1cnc2[nH]cc(-c3cnn(C)c3)c2c1 (mixture of isomers) :: 6.96
6) Cn1cc(-c2c[nH]c3ncc(C4=C[C@H]5O[C@@H]4C[C@@H]5C#N)cc23)cn1 [I-155 exo] :: 6.66
7) Cn1cc(-c2c[nH]c3ncc(C4CC5CC4C(CO)C5CO)cc23)cn1 (centres unmarked) :: 7.06

###

Molecular target: JNK3 (Homo sapiens)
Assay: JNK3 SPA assay
Type: biochemical
Settings: 3.33 μM ATP, GST-c-Jun substrate; read-out: IC50 against JNK3
Procedure: JNK1, JNK2, JNK3—SPA Assay JNK1, JNK2, JNK3—SPA Assay • 1. Compound is dissolved in DMSO to a convenient concentration and this is diluted in 10% DMSO to a five times concentrate of the desired starting concentration (frequently 1:100). • 2. 10 μl of 500 mM EDTA is added to alternative wells of the Opti-plate row, which will receive kinase reaction plus DMSO. […] • 7. […] Plates are sealed and incubated for 30 minutes at room temperature, centrifuged for 10 minutes at 2500 g and counted. • 10. […]
pIC50: −log10 of the molar value.
quantity-measured: pIC50

1. c1n[nH]cc1-c1c[nH]c2ncc([C@H]3CC[C@@H](N4CCOCC4)CC3)cc12 :: 6.54
2. Cn1cc(-c2c[nH]c3ncc(C4=C[C@H]5O[C@@H]4C[C@H]5C#N)cc23)cn1 [I-155 endo] :: 6.76
3. Cn1cc(-c2c[nH]c3ncc([C@H]4CC[C@@H](N5CCCOCC5)CC4)cc23)cn1 :: 6.74
4. COCCN[C@H]1CC[C@H](c2cnc3[nH]cc(-c4cnn(C)c4)c3c2)CC1 :: 6.58
5. CN(C)C1CCC(c2cnc3[nH]cc(-c4cnn(C)c4)c3c2)CC1 (centres unmarked) :: 7.40
6. Cc1c(-c2c[nH]c3ncc([C@H]4CC[C@@H](N5CCOCC5)CC4)cc23)cnn1C :: 5.77
7. COC1(c2cnc3[nH]cc(-c4cnn(C)c4)c3c2)CCCC1 :: 6.33
8. Cn1cc(-c2c[nH]c3ncc(C4=CCC5(CC4)OCCO5)cc23)cn1 :: 6.65
9. CCN(C)[C@H]1CC[C@H](c2cnc3[nH]cc(-c4cnn(C)c4)c3c2)CC1 :: 6.52
10. Cn1cc(-c2c[nH]c3ncc([C@H]4CC[C@H](N5CCCCC5)CC4)cc23)cn1 :: 6.78
11. Cn1cc(-c2c[nH]c3ncc(C4=CC5CCC4C5)cc23)cn1 (centres unmarked) :: 7.12
12. COCCN(C)[C@H]1CC[C@@H](c2cnc3[nH]cc(-c4cnn(C)c4)c3c2)CC1 :: 6.59
13. CCCN(CC)[C@H]1CC[C@H](c2cnc3[nH]cc(-c4cnn(C)c4)c3c2)CC1 :: 6.50
